Origin of the recorded values: ChEMBL document CHEMBL1126324

- protocol description: Half life time was observed by 50% conversion to compound 1 at pH 1.5
- Format: ADME
Quick reference for T1/2 among some compounds

compound structure: CCc1nc(O)n(C(=O)Cc2ccccc2)c1C(=O)c1ccc(-n2ccnc2C)cc1
T1/2, h: 39

compound structure: CCc1nc(O)n(C(=O)c2ccccc2)c1C(=O)c1ccc(-n2ccnc2C)cc1
T1/2, h: 263

compound structure: CCC(=O)n1c(O)nc(CC)c1C(=O)c1ccc(-n2ccnc2C)cc1
T1/2, h: 17

compound structure: CCc1nc(O)n(C(=O)C(C)C)c1C(=O)c1ccc(-n2ccnc2C)cc1
T1/2, h: 132

compound structure: CCc1nc(O)n(C(C)=O)c1C(=O)c1ccc(-n2ccnc2C)cc1
T1/2, h: 21

* * *

- protocol description: Half life time was observed by 50% conversion to compound 1 at pH 7.4
- Assay type: ADME
reported property: T1/2 (h)

compound structure: CCc1nc(O)n(C(=O)c2ccccc2)c1C(=O)c1ccc(-n2ccnc2C)cc1
uom: h
numeric value: 25
--
compound structure: CCc1nc(O)n(C(C)=O)c1C(=O)c1ccc(-n2ccnc2C)cc1
uom: h
numeric value: 8
--
compound structure: CCc1nc(O)n(C(=O)Cc2ccccc2)c1C(=O)c1ccc(-n2ccnc2C)cc1
uom: h
numeric value: 1.5
--
compound structure: CCC(=O)n1c(O)nc(CC)c1C(=O)c1ccc(-n2ccnc2C)cc1
uom: h
numeric value: 6
--
compound structure: CCc1nc(O)n(C(=O)C(C)C)c1C(=O)c1ccc(-n2ccnc2C)cc1
uom: h
numeric value: 8

* * *

- protocol description: Solubility was measured in pH 7.4 phosphate buffer
- Format: physicochemical
Is solubility at least 20 µM? Then Met. If not, Not met.

compound structure: CCC(=O)n1c(O)nc(CC)c1C(=O)c1ccc(-n2ccnc2C)cc1
assigned label: Met
--
compound structure: CCc1nc(O)n(C(C)=O)c1C(=O)c1ccc(-n2ccnc2C)cc1
assigned label: Met
--
compound structure: CCc1nc(O)n(C(=O)Cc2ccccc2)c1C(=O)c1ccc(-n2ccnc2C)cc1
assigned label: Met
--
compound structure: CCc1nc(O)n(C(=O)c2ccccc2)c1C(=O)c1ccc(-n2ccnc2C)cc1
assigned label: Met
--
compound structure: CCc1[nH]c(O)nc1C(=O)c1ccc(-n2ccnc2C)cc1
assigned label: Met
--
compound structure: CCc1nc(O)n(C(=O)C(C)C)c1C(=O)c1ccc(-n2ccnc2C)cc1
assigned label: Not met

* * *

Quick reference for T1/2 among some compounds
- Organism: Canis familiaris
- protocol description: Half life time was observed by 50% conversion to compound 1 in dog plasma
- Format: ADME, Canis lupus familiaris
- condition notes: in vitro
reported property: T1/2 (min)

compound structure: CCc1nc(O)n(C(=O)c2ccccc2)c1C(=O)c1ccc(-n2ccnc2C)cc1
uom: min
numeric value: 38

compound structure: CCc1nc(O)n(C(C)=O)c1C(=O)c1ccc(-n2ccnc2C)cc1
uom: min
numeric value: 30

compound structure: CCC(=O)n1c(O)nc(CC)c1C(=O)c1ccc(-n2ccnc2C)cc1
uom: min
numeric value: 30

compound structure: CCc1nc(O)n(C(=O)C(C)C)c1C(=O)c1ccc(-n2ccnc2C)cc1
uom: min
numeric value: 47

* * *

Quick reference for Partition coefficient among some compounds
- protocol description: Partition coefficient was determined in an octanol/ pH 7.4 phosphate buffer system.
- Assay type: physicochemical
- condition notes: octanol/water
reported property: Partition coefficient

compound structure: CCc1nc(O)n(C(=O)C(C)C)c1C(=O)c1ccc(-n2ccnc2C)cc1
reported property: Partition coefficient
cmp: >
numeric value: 200
--
compound structure: CCc1[nH]c(O)nc1C(=O)c1ccc(-n2ccnc2C)cc1
reported property: Partition coefficient
cmp: =
numeric value: 7
--
compound structure: CCc1nc(O)n(C(=O)c2ccccc2)c1C(=O)c1ccc(-n2ccnc2C)cc1
reported property: Partition coefficient
cmp: =
numeric value: 92
--
compound structure: CCC(=O)n1c(O)nc(CC)c1C(=O)c1ccc(-n2ccnc2C)cc1
reported property: Partition coefficient
cmp: =
numeric value: 52
--
compound structure: CCc1nc(O)n(C(C)=O)c1C(=O)c1ccc(-n2ccnc2C)cc1
reported property: Partition coefficient
cmp: =
numeric value: 26
